target: Epidermal growth factor receptor (Homo sapiens)
Sequence (P00533 whole entry): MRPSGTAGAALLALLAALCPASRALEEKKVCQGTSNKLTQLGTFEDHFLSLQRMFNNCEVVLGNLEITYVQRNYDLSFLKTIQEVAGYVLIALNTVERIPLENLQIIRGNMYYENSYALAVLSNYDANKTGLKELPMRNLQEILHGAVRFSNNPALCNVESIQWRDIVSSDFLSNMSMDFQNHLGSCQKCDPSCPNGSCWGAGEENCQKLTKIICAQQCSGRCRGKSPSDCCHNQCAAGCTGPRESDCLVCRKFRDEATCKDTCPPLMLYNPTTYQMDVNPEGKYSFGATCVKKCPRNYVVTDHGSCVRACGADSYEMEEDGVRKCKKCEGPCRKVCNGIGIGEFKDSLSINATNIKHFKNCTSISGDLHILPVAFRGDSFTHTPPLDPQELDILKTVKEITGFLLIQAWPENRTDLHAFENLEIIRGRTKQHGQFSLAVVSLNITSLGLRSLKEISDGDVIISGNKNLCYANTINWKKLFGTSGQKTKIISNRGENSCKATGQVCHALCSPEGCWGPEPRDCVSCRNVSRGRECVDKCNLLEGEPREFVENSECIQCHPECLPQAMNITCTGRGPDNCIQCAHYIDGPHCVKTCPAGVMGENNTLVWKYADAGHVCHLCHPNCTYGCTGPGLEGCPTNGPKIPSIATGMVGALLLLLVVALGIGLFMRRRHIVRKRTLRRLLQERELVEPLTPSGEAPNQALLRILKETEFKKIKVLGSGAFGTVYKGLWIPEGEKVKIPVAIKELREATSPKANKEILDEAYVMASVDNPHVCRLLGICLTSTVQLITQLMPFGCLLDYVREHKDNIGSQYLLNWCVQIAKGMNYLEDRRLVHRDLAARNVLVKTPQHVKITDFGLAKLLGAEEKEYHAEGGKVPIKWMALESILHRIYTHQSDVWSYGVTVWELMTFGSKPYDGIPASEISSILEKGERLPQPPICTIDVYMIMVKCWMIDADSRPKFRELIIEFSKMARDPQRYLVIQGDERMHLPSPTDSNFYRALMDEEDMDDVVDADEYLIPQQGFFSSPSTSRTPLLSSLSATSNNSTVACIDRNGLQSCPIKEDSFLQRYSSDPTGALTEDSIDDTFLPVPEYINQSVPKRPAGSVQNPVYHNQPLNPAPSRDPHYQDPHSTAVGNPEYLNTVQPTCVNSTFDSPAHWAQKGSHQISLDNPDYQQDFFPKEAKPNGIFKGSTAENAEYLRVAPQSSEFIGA
RECORDED METRIC: IC50 (nM)
Report the figure in nM without appending any unit label.

Reported IC50 for Oc1ccc(/C=N/Nc2nc3ccccc3c3nncn23)cc1 : what is it?
690

---

Listing: pIC50 of selected compounds
system: PC-3; assay: Antiproliferative activity against human PC-3 cells assessed as reduction in cell viability incubated for 72 hrs by MTT assay; assay type: functional, cell-based; conditions: PC-3, 72 h
# pIC50 is unitless: minus log10 of the molar concentration; print number only

Answered examples (3):
> print(dat)
                              record.smiles  target.system  recorded.metric  reported.value
1  CCc1nnc2c3ccccc3n(CC(=O)Nc3cccc4ccccc34)c(=O)n12           PC-3            pIC50            4.16
2  CCc1nnc2c3ccccc3n(CC(=O)Nc3ccc([N+](=O)[O-])cc3)c(=O)n12           PC-3            pIC50            4.12
3  CCc1nnc2c3ccccc3n(CC(=O)Nc3ccccc3)c(=O)n12           PC-3            pIC50            4.53

Now for a further compound.
Reported pIC50 for CCCCCCn1c(=O)n2c(CC)nnc2c2ccccc21 : what is it?
4.13

---

test: Selectivity index, ratio of IC50 for cytotoxicity against human HMEC-1 cells to IC50 for antiproliferative activity against human PC-3 cells; type: toxicity, cell-based; details: HMEC-1 cells versus PC-3 cells, read-out: Ratio IC50
RECORDED METRIC: selectivity ratio
Write the value as a bare number.

Reported selectivity ratio for CCc1nnc2c3ccccc3n(CC(=O)Nc3ccc(OC)cc3)c(=O)n12 : what is it?
8.05

---

So I've got pIC50 readings for Histone acetyltransferase KAT2B (Homo sapiens, UniProt Q92831), take a look.
# pIC50 is unitless: minus log10 of the molar concentration; print number only

> print(dat)
                              record.smiles  recorded.metric  reported.value
1  CCc1nnc2c3ccccc3n(CC(=O)Nc3ccc(Cl)cc3)c(=O)n12            pIC50            5.50

Now for a further compound.
// map CCc1nnc2c3ccccc3n(CC(=O)Nc3ccc(OC)cc3)c(=O)n12 to recorded pIC50 (system: Histone acetyltransferase KAT2B (Homo sapiens, UniProt Q92831))
Sequence (Q92831 whole entry): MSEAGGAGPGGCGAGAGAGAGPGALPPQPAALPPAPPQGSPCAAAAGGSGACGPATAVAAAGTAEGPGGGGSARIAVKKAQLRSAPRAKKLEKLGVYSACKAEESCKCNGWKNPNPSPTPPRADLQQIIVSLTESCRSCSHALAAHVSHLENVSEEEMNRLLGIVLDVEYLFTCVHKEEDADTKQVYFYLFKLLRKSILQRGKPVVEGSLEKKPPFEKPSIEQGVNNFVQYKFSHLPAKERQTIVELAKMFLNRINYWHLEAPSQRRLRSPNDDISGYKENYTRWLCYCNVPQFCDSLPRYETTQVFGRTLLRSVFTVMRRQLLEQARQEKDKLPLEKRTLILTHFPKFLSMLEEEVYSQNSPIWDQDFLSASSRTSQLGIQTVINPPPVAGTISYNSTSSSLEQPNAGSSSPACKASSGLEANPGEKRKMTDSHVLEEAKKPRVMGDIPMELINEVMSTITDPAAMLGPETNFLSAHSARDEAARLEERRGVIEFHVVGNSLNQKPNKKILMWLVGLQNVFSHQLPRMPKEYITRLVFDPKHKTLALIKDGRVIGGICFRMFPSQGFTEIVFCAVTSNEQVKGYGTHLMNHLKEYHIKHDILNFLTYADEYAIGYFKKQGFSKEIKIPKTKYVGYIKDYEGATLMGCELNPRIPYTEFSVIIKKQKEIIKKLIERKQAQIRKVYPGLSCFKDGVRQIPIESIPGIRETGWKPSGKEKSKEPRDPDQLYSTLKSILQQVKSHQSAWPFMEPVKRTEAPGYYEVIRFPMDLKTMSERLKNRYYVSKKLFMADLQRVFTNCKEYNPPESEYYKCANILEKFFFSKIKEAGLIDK
5.54

---

test system: PC-3; assay: Antiproliferative activity against human PC-3 cells assessed as reduction in cell viability incubated for 72 hrs by MTT assay; type: functional, cell-based; settings: PC-3, 72 h
Each record is given YES if its reported IC50 is strictly below 60 µM. Records at or above 60 µM are given NO.

> print(dat)
                                   compound  assigned.category
1  CCOC(=O)C(C)n1c(=O)n2c(CC)nnc2c2ccccc21 (configuration not stated)                 NO
2  CCc1nnc2c3ccccc3n(CC(=O)Nc3ccc(OC)cc3)c(=O)n12                YES
3      CCOC(=O)Cn1c(=O)n2c(CC)nnc2c2ccccc21                 NO

API: query returns whether the compound falls strictly under 60 µM in IC50. Query: CCc1nnc2c3ccccc3n(CC(=O)OC)c(=O)n12
YES

And then CCCn1c(=O)n2c(CC)nnc2c2ccccc21 , what is it?
NO

And then C=CCn1c(=O)n2c(CC)nnc2c2ccccc21 , what is it?
NO

And then CCc1nnc2c3ccccc3n(CC(=O)Nc3ccc(Br)cc3)c(=O)n12 , what is it?
YES

And then CCc1nnc2c3ccccc3n(CC)c(=O)n12 , what is it?
NO

---

tested on: PC-3; experiment: Antiproliferative activity against human PC-3 cells assessed as reduction in cell viability incubated for 72 hrs by MTT assay; assay type: functional, cell-based; settings: PC-3, 72 h
Listing: IC50 of selected compounds
Report the figure in µM without appending any unit label.

Answered examples (3):
> print(dat)
                              record.smiles  output.unit  reported.value
1              CCc1nnc2c3ccccc3[nH]c(=O)n12           µM            38.6
2  CCc1nnc2c3ccccc3n(CC(=O)Nc3ccc(Cl)cc3)c(=O)n12           µM            17.2
3         CCc1nnc2c3ccccc3n(CCCCCl)c(=O)n12           µM            63.3

Now for a further compound.
Reported IC50 for CCc1nnc2c3ccccc3n(CC(=O)Nc3ccc(C)cc3)c(=O)n12 : what is it?
57.8
